measurementName: melting point (°C)
One number for each entry, in °C.

| molecule | measurementName | unitText | valueObserved |
| --- | --- | --- | --- |
| O=[N+]([O-])c1c(CS(=O)(=O)CCC(F)(F)F)nc2c(S(=O)(=O)c3ccc(Cl)cc3)cc(Cl)cn12 | melting point | °C | 233 |
| O=[N+]([O-])c1c(CS(=O)(=O)c2ccc(F)cc2)nc2c(Br)cc(Cl)cn12 | melting point | °C | 222 |
| O=[N+]([O-])c1c(CS(=O)(=O)CCC(F)(F)F)nc2c(Br)cc(Cl)cn12 | melting point | °C | 181 |
| COc1ccc(S(=O)(=O)Cc2nc3c(Sc4ccc(Cl)cc4)cc(Cl)cn3c2[N+](=O)[O-])cc1 | melting point | °C | 214 |
| O=[N+]([O-])c1c(C[S+]([O-])c2ccccc2)nc2c(Br)cc(Cl)cn12 (stereo not shown) | melting point | °C | 198 |

Provide melting point for all items below, preserving their order.
1. O=[N+]([O-])c1c(CS(=O)(=O)CCC(F)(F)F)nc2c([S+]([O-])c3ccc(Cl)cc3)cc(Cl)cn12 (stereo not shown)
2. O=[N+]([O-])c1c(CS(=O)(=O)c2ccc(F)cc2)nc2c(Cl)cc(Cl)cn12

(A)
1. 221
2. 224

----------
Assay: Cytotoxicity evaluation on HepG2 cell line (MTT)
Type: cell-based
Settings: human, HepG2 cells
measurementName: CC50 at 72 h

| compound | CC50 at 72 h |
| --- | --- |
| O=[N+]([O-])c1c(CS(=O)(=O)c2ccc(F)cc2)nc2c(Br)cc(Cl)cn12 [Compound 2e] | > 7.8 µM |
| O=[N+]([O-])c1c(CS(=O)(=O)C2CC2)nc2c(Sc3ccc(Cl)cc3)cc(Cl)cn12 [Compound 3h] | 22.3 µM |
| O=[N+]([O-])c1c(CS(=O)(=O)c2ccc(O)cc2)nc2c(Sc3ccc(Cl)cc3)cc(Cl)cn12 [Compound 3a] | 22.3 µM |
| O=[N+]([O-])c1c(CS(=O)(=O)CCC(F)(F)F)nc2c(S(=O)(=O)c3ccc(Cl)cc3)cc(Cl)cn12 [Compound 6b] | > 10 µM |
| O=[N+]([O-])c1c(CS(=O)(=O)c2ccc(OC(F)(F)F)cc2)nc2c(Sc3ccc(Cl)cc3)cc(Cl)cn12 [Compound 3e] | > 12.5 µM |

Provide CC50 at 72 h for all items below, preserving their order.
1. O=[N+]([O-])c1c(CS(=O)(=O)C2CC2)nc2c(Br)cc(Cl)cn12 [Compound 2i]
2. O=[N+]([O-])c1c(CS(=O)(=O)c2ccc(C(F)(F)F)cc2)nc2c(Cl)cc(Cl)cn12 [Compound 1d]

(A)
["> 6.2 µM", "> 15.6 µM"]

----------
Assay: Thermodynamic solubility at pH 7.4 (miniaturized shake-flask)
Format: physicochemical
Conditions: phosphate buffer (PBS), aqueous buffer, kinetic from dmso stock, pH 7.4, PBS, 23 °C
Provide the recorded solubility thermodynamic at 24 h for the entries that follow.
One number for each entry, in µM.

// worked examples, solubility thermodynamic at 24 h included
| compound | measurementName | unitText | valueObserved |
| --- | --- | --- | --- |
| O=[N+]([O-])c1c(CS(=O)(=O)c2ccc(OC(F)(F)F)cc2)nc2c(Br)cc(Cl)cn12 | solubility thermodynamic at 24 h | µM | 8.6 |
| O=[N+]([O-])c1c(CS(=O)(=O)C2CC2)nc2c(Sc3ccc(Cl)cc3)cc(Cl)cn12 | solubility thermodynamic at 24 h | µM | 3 |
| O=[N+]([O-])c1c(CS(=O)(=O)c2ccccc2)nc2c(Br)cc(Cl)cn12 [Hit A, reference compound] | solubility thermodynamic at 24 h | µM | 6.9 |

Then this compound:
solubility thermodynamic at 24 h measured on COc1ccc(S(=O)(=O)Cc2nc3c(Br)cc(Cl)cn3c2[N+](=O)[O-])cc1 = 5.7
